The origin of these recorded values is patent US20260234242A1.

Target: T1, his-tagged human CDH6 extracellular region protein (hCDH6 ECD-his) (human, UniProt P55285 19-615)
T1 construct: also called Human CDH6-his; hCDH6-his; not shown: his tag
T1 sequence: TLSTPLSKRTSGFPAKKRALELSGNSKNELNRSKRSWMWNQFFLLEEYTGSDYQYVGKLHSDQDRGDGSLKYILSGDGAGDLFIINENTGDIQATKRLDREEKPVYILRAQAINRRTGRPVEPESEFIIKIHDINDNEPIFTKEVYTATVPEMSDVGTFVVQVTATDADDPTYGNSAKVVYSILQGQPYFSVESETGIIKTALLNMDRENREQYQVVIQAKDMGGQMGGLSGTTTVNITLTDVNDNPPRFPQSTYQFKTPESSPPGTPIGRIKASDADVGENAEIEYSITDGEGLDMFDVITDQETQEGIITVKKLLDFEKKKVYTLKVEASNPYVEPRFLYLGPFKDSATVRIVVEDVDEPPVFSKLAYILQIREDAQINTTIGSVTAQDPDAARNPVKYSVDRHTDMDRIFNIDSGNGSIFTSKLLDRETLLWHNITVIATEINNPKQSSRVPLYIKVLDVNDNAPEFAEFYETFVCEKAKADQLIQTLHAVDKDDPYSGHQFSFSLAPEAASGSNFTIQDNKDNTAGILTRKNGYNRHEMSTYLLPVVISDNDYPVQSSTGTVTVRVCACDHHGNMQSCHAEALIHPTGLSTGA
Experiment: SPR Biacore, antibody captured on Protein A
assay metric: kon (M⁻¹ s⁻¹)
Please state the figure in M⁻¹ s⁻¹; there is no need to write the unit.

Input: What value of kon has been reported for the following binder? hCDH6-1-H2L3 (antibody, V domains shown, Humanized) VH: EVQLVQSGAEVKKPGSSVKVSCKASGYTFTNYWMHWVRQAPGQGLEWMGDIDPSHSETHYTQKFKDRVTITVDKSTSTAYMELSSLRSEDTAVYYCARGDLGRFDYWGQGTTVTVSS VL: DIQMTQSPSSLSASVGDRVTITCRASESVSIHGTHLMHWYQQKPGKPPKLLIYAASNLESGVPSRFSGSGSETDFTFTISSLQPEDIATYYCQQSFEDPWTFGGGTKVEIK
Output: 457000
